Target: T1, KicGAS (Kaposi sarcoma-associated herpesvirus …, UniProt Q2HR80 1-131)
T1 sequence: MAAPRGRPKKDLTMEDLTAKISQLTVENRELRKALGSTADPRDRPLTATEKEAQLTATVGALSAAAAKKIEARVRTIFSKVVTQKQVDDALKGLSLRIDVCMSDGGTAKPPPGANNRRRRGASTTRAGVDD
Assay: fluorescence polarization; Hill n 2.15; EMSA: 20 mM Tris-HCl pH 7.4, 150 mM NaCl, 10% glycerol, on ice, 20 nM FAM-DNA, gel at 4 C; FP: 400 pg/ul FAM-DNA, buffer and temperature not stated; Hill fits
Conditions: protein: recombinant; tags: Avi-His6-SUMO removed (tag-free); label: 5' FAM
assay-endpoint: Kd (nM)
Numeric only. Scale: nM

Ask | Consider the binder ssHSV60 (ssDNA) DNA: TAAGACACGATGCGATAAAATCTGTTTGTAAAATTTATTAAGGGTACAAATT and give its recorded Kd.
Reply | 170
